Recorded values, source PubChem BioAssay (NCI).

Listing of recorded TGI by entry.
Test system: CCRF-CEM leukemia
Experiment: NCI tumour cell line growth inhibition, 48 h

See these solved cases before continuing.
COc1ccc(C[n+]2c3ccccc3n3c4ccc(N)cc4ccc32)c(OC)c1OC ... 45.7 µM
C/C=C(\C)c1cc(=O)c2c(C)cc3c(c2o1)C(=O)c1c(O)c(C2CC(C)(N(C)C)C(O)C(C)O2)cc(C2CC(N(C)C)C(O)C(C)O2)c1C3=O (stereo not given) ... > 52 µM
O=[N+]([O-])c1ccc(N=Nc2c(O)ccc3cc(S(=O)(=O)O)ccc23)cc1 ... > 100 µM
CC1=NN(c2nc(N)nc(/C(C#N)=C/c3ccc([N+](=O)[O-])o3)n2)C(C)(C)C1 ... > 100 µM
CCCCCCCC(=O)OC[n+]1ccc(-c2c(COC(=O)NC(C)C)c(COC(=O)NC(C)C)c3n2CCC3)cc1 ... > 60.3 µM
Cc1ccc(NC(=O)CC/C(CC(=O)C(C)(C)C)=N/NC(=O)C(N)=O)cc1C ... > 100 µM
CC(=O)OCCOCNC(=S)N/N=C/c1ccc2ccccc2n1 ... > 100 µM
N#Cc1nc(C2CC2)oc1N ... > 100 µM
COC(=O)c1ccccc1/C=C1/Cc2cccc(C)c2C1=O ... > 100 µM
COc1ccc(NS(=O)c2ccc(-c3ccccc3)cc2)cc1 (stereo not given) ... > 100 µM

Moving on to another compound below.
**Q:** Dear colleague, please send me the reported TGI for `COc1cccc(C(=O)Nc2ccc(CN3CCc4nc5cc(OC)c(OC)cc5cc43)cc2)c1` when you can.
**A:** 36.5 µM

----------
Test system: OVCAR-5 ovarian
Experiment: NCI tumour cell line growth inhibition, 48 h
Listing of recorded GI50 by entry.

See these solved cases before continuing.
CN(Cc1cnc(N)nc1N)c1ccc(C(=O)O)cc1 ... > 100 µM
O=C(Cn1c(=O)c(-c2ccccc2)nc2ccccc21)c1ccc(Cl)cc1 ... > 100 µM
COc1cc(-c2n/c(=C\c3c(O)[nH]c4ccc(Cl)cc34)cc3c2=Nc2ccccc2-3)cc(OC)c1OC ... 5.15 µM
O=C(/C=C/C12c3ccccc3C(c3ccccc31)C1C(=O)N(c3ccccc3)C(=O)C12)c1ccc(Cl)cc1 (stereo not drawn) ... 1.6 µM
COc1cc(-c2nn(-c3ccc(NC(=O)Nc4ccc(Cl)c(Cl)c4)cc3)cc2-c2ccncc2)ccc1Cl ... 2.54 µM
Cc1cc2cccnc2c2ncccc12 ... 1.35 µM
NC(=O)c1cc(-c2ccncc2)cc(-c2ccccc2)c1N ... > 25 µM
O=C(COc1ccc(/C=C2\Oc3ccccc3C2=O)cc1)Nc1nccs1 ... > 100 µM

**Q:** Dear colleague, please send me the reported GI50 for `Cn1cc(C2=C(c3c4n(c5ccccc35)CCCC4)C(=O)NC2=O)c2ccccc21` when you can.
**A:** > 25 µM

**Q:** Dear colleague, please send me the reported GI50 for `Cc1onc(-c2c(F)cccc2Cl)c1-c1ncc(-c2ccc(Cl)cc2)o1` when you can.
**A:** 74.4 µM

**Q:** Dear colleague, please send me the reported GI50 for `COc1cc(N2CCN(C(C)C)CC2)ccc1Nc1nc(Nc2cccc3ncccc23)c2cc[nH]c2n1` when you can.
**A:** 2.5 µM

**Q:** Dear colleague, please send me the reported GI50 for `Cc1cc(Cc2cc(C)c(O)c(C)c2)cc(C)c1O` when you can.
**A:** 17.8 µM

**Q:** Dear colleague, please send me the reported GI50 for `O=C(/C=C1\C(=O)N(Cc2ccc([N+](=O)[O-])cc2)c2ccccc21)c1ccc(OCCN2CCCCC2)cc1` when you can.
**A:** 1.33 µM
